Target: human Melanocortin-4 receptor (MC4R) (Homo sapiens (Human), UniProt P32245)
Sequence (P32245 whole entry): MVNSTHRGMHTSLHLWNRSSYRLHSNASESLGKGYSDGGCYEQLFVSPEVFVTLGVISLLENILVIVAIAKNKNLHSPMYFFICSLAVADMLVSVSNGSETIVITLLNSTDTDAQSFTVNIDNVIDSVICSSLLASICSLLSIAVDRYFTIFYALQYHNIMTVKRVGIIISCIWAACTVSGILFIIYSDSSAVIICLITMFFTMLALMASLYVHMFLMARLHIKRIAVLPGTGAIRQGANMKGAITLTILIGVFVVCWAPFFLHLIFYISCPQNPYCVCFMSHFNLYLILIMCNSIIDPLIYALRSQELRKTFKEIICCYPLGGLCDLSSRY
Assay: Functional in vitro MC4R antagonist potency assay (cAMP HTRF in CHO cells)
Type: cell-based
Conditions: read-out: Kb (nM) Antagonist geometric mean
readout label: Kb (nM)

Worked examples, 4 compounds total:
> print(dat)
                                   compound                              study.target  measurement
1  Cc1nc2c(cc1-c1ncccn1)CC[C@@]1(CCN(C(=O)Cc3cc(F)c(F)c(F)c3)C1)N2  human Melanocortin-4 receptor (MC4R) (Homo sapiens (Human), UniProt P32245)          4.1
2  [2H]C([2H])([2H])Oc1cc([C@@H](C)C(=O)N2CC[C@@]3(CCc4cc(-c5ncccn5)c(C)nc4N3)C2)c(F)cn1  human Melanocortin-4 receptor (MC4R) (Homo sapiens (Human), UniProt P32245)          0.6
3  Cc1nc2c(cc1-c1nnn(C)n1)CC[C@@]1(CCN(C(=O)Cc3ccc(C(F)(F)F)cc3)C1)N2 (single isomer, unassigned)  human Melanocortin-4 receptor (MC4R) (Homo sapiens (Human), UniProt P32245)           10
4  COc1cc([C@](C)(F)C(=O)N2CC[C@@]3(CCc4cc(-c5ncccn5)c(C)nc4N3)C2)ccn1 (single isomer, unassigned)  human Melanocortin-4 receptor (MC4R) (Homo sapiens (Human), UniProt P32245)          7.2

[a] Cc1nc2c(cc1-c1ncccn1)CC[C@@]1(CCN(C(=O)C(C)c3ccc(C(F)(F)F)cc3)C1)N2 (single isomer, unassigned) [Example 7]
[b] Cc1nc2c(cc1-c1ncccn1)CC[C@@]1(CCN(C(=O)[C@H](C)c3cc(C(F)(F)F)ncc3Cl)C1)N2 (single isomer, unassigned)
[c] Cc1nc2c(cc1-c1ncccn1)CC[C@@]1(CCN(C(=O)[C@H](C)c3cc(F)c(F)cc3F)C1)N2 (single isomer, unassigned) [Example 52]
[d] COc1cc([C@@H](C)C(=O)N2CC[C@@]3(CCc4ccc(C)nc4N3)C2)c(Cl)cn1 (single isomer, unassigned)
Asked: Write the entries in order, lowest recorded Kb first. Give me the labels in the order the question wants.
Given back: c, d, a, b
(c: 2.6 nM, d: 5.5 nM, a: 8.1 nM, b: 23 nM)
